system-tested: human MDR1 (P-glycoprotein; P-gp) (Homo sapiens (Human))
Sequence (P08183 whole entry): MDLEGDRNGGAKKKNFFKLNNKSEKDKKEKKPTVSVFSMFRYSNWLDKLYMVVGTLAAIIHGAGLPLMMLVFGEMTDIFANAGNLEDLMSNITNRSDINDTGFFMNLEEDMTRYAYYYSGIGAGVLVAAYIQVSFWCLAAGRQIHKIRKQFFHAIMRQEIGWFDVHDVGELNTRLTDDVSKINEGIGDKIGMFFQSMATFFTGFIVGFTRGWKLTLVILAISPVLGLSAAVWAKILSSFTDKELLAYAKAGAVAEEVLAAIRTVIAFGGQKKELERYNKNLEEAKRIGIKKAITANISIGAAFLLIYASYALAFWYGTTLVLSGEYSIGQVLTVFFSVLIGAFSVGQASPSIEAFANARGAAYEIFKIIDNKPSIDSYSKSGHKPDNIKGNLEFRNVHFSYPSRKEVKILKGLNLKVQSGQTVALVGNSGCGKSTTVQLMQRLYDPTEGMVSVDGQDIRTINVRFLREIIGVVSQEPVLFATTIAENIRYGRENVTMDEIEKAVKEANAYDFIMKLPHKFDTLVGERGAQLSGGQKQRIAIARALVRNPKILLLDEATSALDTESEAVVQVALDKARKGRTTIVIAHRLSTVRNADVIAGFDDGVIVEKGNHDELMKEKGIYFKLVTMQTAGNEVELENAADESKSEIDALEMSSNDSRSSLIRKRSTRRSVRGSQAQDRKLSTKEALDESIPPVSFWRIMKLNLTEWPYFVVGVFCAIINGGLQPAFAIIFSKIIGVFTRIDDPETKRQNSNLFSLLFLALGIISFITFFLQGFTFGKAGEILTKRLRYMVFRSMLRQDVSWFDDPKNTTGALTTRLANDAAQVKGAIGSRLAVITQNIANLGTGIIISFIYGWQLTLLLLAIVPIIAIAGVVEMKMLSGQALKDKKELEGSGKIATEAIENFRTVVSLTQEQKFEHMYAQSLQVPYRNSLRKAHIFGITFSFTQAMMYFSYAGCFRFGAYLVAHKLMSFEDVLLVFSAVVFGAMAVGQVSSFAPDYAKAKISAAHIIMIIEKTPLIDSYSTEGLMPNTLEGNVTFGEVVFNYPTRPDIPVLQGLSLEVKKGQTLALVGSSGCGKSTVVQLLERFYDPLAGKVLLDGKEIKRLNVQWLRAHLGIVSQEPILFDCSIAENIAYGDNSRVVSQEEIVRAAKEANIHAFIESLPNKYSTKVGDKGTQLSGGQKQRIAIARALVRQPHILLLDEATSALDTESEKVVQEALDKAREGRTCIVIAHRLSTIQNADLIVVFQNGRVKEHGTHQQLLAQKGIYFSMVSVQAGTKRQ
run-description: bi-directional MDCK-MDR1 permeability assay
Assay type: in vitro ADME
condition-parameters: efflux ratio B→A/A→B
Mark 1 for MDCK-MDR1 ER under 3, -1 if at or over.

{"columns": ["compound", "cat"],
 "data": [
  ["CC(=O)N1CCC([C@@H]2Nc3cc(F)cc4c(=O)[nH]nc(c34)[C@H]2c2ccccc2Cl)CC1 [Compound 0223B]", -1]
]}

Query block: In the record for O=c1[nH]nc2c3c(cc(F)cc13)N[C@H]([C@@H]1CCOC1)[C@H]2c1ccc(F)cc1F [Compound 0115B] , is MDCK-MDR1 ER less than 3?
Result block: 1

Query block: In the record for O=c1[nH]nc2c3c(cc(F)cc13)N[C@H](C1CCOCC1)[C@H]2c1ccccc1Cl [Compound 0210B] , is MDCK-MDR1 ER less than 3?
Result block: -1

Query block: In the record for O=c1[nH]nc2c3c(cc(F)cc13)NCC2c1ccc(Cl)cc1F (stereo not shown) , is MDCK-MDR1 ER less than 3?
Result block: 1

Query block: In the record for O=c1[nH]nc2c3c(cc(F)cc13)N[C@@H]([C@@H]1CCOC1)[C@@H]2c1ccccc1Cl [Compound 0121D] , is MDCK-MDR1 ER less than 3?
Result block: -1

Query block: In the record for CC(C)[C@@H]1Nc2cc(F)cc3c(=O)[nH]nc(c23)[C@H]1c1c(F)cc(F)cc1F [Compound 0221B] , is MDCK-MDR1 ER less than 3?
Result block: 1
